Below, each of the compounds is paired with its reported remaining at 24 h value.
Run Description: Stability in eyes of C57BL/6J mouse bearing mouse B16F0 cells assessed as intact parent compound level at 0.37 to 1.85 MBq, iv after 24 hrs by radio-HPLC and radio-TLC method
Assay type: ADME, organism-based, Eye
Test Conditions: in the assay text read “20 MBq” for “0.37 to 1.85 MBq”, read-out: Stability
Write the answer as a number in %, unit excluded.

Worked cases, remaining at 24 h given:
chemical_structure=O=C(c1ccc2cccnc2n1)N1CCN(Cc2ccc([123I])cc2)CC1 measured_parameter="remaining at 24 h" unit_annotation=% experimental_value=35
chemical_structure=O=C(c1ccc2c(n1)NCCC2)N1CCN(Cc2ccc([123I])cc2)CC1 measured_parameter="remaining at 24 h" unit_annotation=% experimental_value=35
chemical_structure=O=C(CN1Cc2ccccc2C1=O)NC1CCN(Cc2ccc([123I])cc2)CC1 measured_parameter="remaining at 24 h" unit_annotation=% experimental_value=80

Proceed to the following item.
Returns the measured remaining at 24 h for the input compound. Input: O=C(CN1Cc2ccccc2C1=O)N1C[C@H]2CN(Cc3ccc([123I])cc3)C[C@H]2C1
80

====

Tested on: Kidney
Run Description: Biodistribution in kidney of C57BL/6J mouse bearing mouse B16F0 cells at 0.37 to 1.85 MBq, iv after 3 hrs by gamma counting method
Assay type: ADME, organism-based
Test Conditions: in vivo
Drug uptake values, listed per item
Record the result as number plus unit.

Worked examples, 3 molecules total:
chemical_structure=O=C(CN1Cc2ccccc2C1=O)NC1CCN(Cc2ccc([123I])cc2)CC1 measured_parameter="Drug uptake" experimental_value="7.4 % ID/g"
chemical_structure=O=C(c1ccc2c(n1)NCCC2)N1CCN(Cc2ccc([123I])cc2)CC1 measured_parameter="Drug uptake" experimental_value="9 % ID/g"
chemical_structure=O=C(CN1Cc2ccccc2C1=O)N1C[C@H]2CN(Cc3ccc([123I])cc3)C[C@H]2C1 measured_parameter="Drug uptake" experimental_value="8.4 % ID/g"

Now, please, on to the next molecule.
Consider the molecule O=C(c1ccc2cccnc2n1)N1CCN(Cc2ccc([123I])cc2)CC1 and give its measured Drug uptake.
6.2 % ID/g

====

Test system: Spleen
Run Description: Biodistribution in spleen of C57BL/6J mouse bearing mouse B16F0 cells at 0.37 to 1.85 MBq, iv after 3 hrs by gamma counting method
Assay type: ADME, organism-based
Test Conditions: in vivo
Measured Parameter: Drug uptake
Please state the value followed by its unit.

chemical_structure=O=C(c1ccc2c(n1)NCCC2)N1CCN(Cc2ccc([123I])cc2)CC1 experimental_value="2 % ID/g"
chemical_structure=O=C(c1ccc2cccnc2n1)N1CCN(Cc2ccc([123I])cc2)CC1 experimental_value="2.3 % ID/g"
chemical_structure=O=C(CN1Cc2ccccc2C1=O)N1C[C@H]2CN(Cc3ccc([123I])cc3)C[C@H]2C1 experimental_value="0.5 % ID/g"

Continue with the molecule presented below.
Need Drug uptake, item O=C(CN1Cc2ccccc2C1=O)NC1CCN(Cc2ccc([123I])cc2)CC1
7.6 % ID/g

====

Run Description: Ratio of AUC in tumor to gastrointestinal tract of C57BL/6J mouse bearing mouse B16F0 cells at 0.37 to 1.85 MBq, iv by gamma counting method
Format: ADME, organism-based
Test Conditions: in vivo
Measured Parameter: Ratio
Output spec: single numeric token, no unit.

Worked examples, 3 molecules total:
chemical_structure=O=C(CN1Cc2ccccc2C1=O)N1C[C@H]2CN(Cc3ccc([123I])cc3)C[C@H]2C1 measured_parameter=Ratio experimental_value=2.9
chemical_structure=O=C(CN1Cc2ccccc2C1=O)NC1CCN(Cc2ccc([123I])cc2)CC1 measured_parameter=Ratio experimental_value=3
chemical_structure=O=C(c1ccc2c(n1)NCCC2)N1CCN(Cc2ccc([123I])cc2)CC1 measured_parameter=Ratio experimental_value=1.8

Now let's try a different one.
Sample O=C(c1ccc2cccnc2n1)N1CCN(Cc2ccc([123I])cc2)CC1 — what was its Ratio?
5.5

====

Run Description: Stability in urine of C57BL/6J mouse bearing mouse B16F0 cells assessed as drug degradation at 0.37 to 1.85 MBq, iv after 24 hrs by radio-HPLC and radio-TLC method
Assay type: ADME, organism-based
Test Conditions: in vivo, in the assay text read “20 MBq” for “0.37 to 1.85 MBq”
Measured Parameter: Stability

chemical_structure=O=C(c1ccc2c(n1)NCCC2)N1CCN(Cc2ccc([123I])cc2)CC1 experimental_value=Unstable
chemical_structure=O=C(c1ccc2cccnc2n1)N1CCN(Cc2ccc([123I])cc2)CC1 experimental_value=Unstable
chemical_structure=O=C(CN1Cc2ccccc2C1=O)N1C[C@H]2CN(Cc3ccc([123I])cc3)C[C@H]2C1 experimental_value=Unstable
chemical_structure=O=C(CN1Cc2ccccc2C1=O)NC1CCN(Cc2ccc([123I])cc2)CC1 experimental_value=Unstable

====

Tested on: Mus musculus
Run Description: Biodistribution in large gastrointestinal tract of C57BL/6J mouse bearing mouse B16F0 cells at 0.37 to 1.85 MBq, iv after 3 hrs by gamma counting method
Format: ADME, organism-based, Large intestine
Test Conditions: in vivo
Here, each record is paired with measured Drug uptake data.
Supply the numeric figure in % ID/g, leaving out any unit text.

chemical_structure=O=C(c1ccc2c(n1)NCCC2)N1CCN(Cc2ccc([123I])cc2)CC1 tested_system="Mus musculus" measured_parameter="Drug uptake" experimental_value=59.6
chemical_structure=O=C(CN1Cc2ccccc2C1=O)NC1CCN(Cc2ccc([123I])cc2)CC1 tested_system="Mus musculus" measured_parameter="Drug uptake" experimental_value=10.9
chemical_structure=O=C(CN1Cc2ccccc2C1=O)N1C[C@H]2CN(Cc3ccc([123I])cc3)C[C@H]2C1 tested_system="Mus musculus" measured_parameter="Drug uptake" experimental_value=21.4

Now look at this entry.
Sample O=C(c1ccc2cccnc2n1)N1CCN(Cc2ccc([123I])cc2)CC1 — what was its Drug uptake?
11.9

====

Drug uptake for assorted compounds
Tested on: Liver
Run Description: Biodistribution in liver of C57BL/6J mouse bearing mouse B16F0 cells at 0.37 to 1.85 MBq, iv after 6 hrs by gamma counting method
Assay type: ADME, organism-based
Test Conditions: in vivo
Write the numeric value and append its unit.

Previously resolved entries follow.
chemical_structure=O=C(CN1Cc2ccccc2C1=O)N1C[C@H]2CN(Cc3ccc([123I])cc3)C[C@H]2C1 measured_parameter="Drug uptake" experimental_value="3.1 % ID/g"
chemical_structure=O=C(c1ccc2c(n1)NCCC2)N1CCN(Cc2ccc([123I])cc2)CC1 measured_parameter="Drug uptake" experimental_value="6.3 % ID/g"
chemical_structure=O=C(c1ccc2cccnc2n1)N1CCN(Cc2ccc([123I])cc2)CC1 measured_parameter="Drug uptake" experimental_value="10.1 % ID/g"

Now look at this one.
Drug uptake for O=C(CN1Cc2ccccc2C1=O)NC1CCN(Cc2ccc([123I])cc2)CC1 ?
35.1 % ID/g

====

Test system: Mus musculus
Run Description: Biodistribution in eyes of C57BL/6J mouse bearing mouse B16F0 cells at 0.37 to 1.85 MBq, iv after 6 hrs by gamma counting method
Type: ADME, organism-based, Eye
Test Conditions: in vivo
Overview of recorded Drug uptake for various compounds

chemical_structure=O=C(c1ccc2c(n1)NCCC2)N1CCN(Cc2ccc([123I])cc2)CC1 experimental_value="52.8 % ID/g"
chemical_structure=O=C(CN1Cc2ccccc2C1=O)N1C[C@H]2CN(Cc3ccc([123I])cc3)C[C@H]2C1 experimental_value="21.8 % ID/g"
chemical_structure=O=C(c1ccc2cccnc2n1)N1CCN(Cc2ccc([123I])cc2)CC1 experimental_value="37.2 % ID/g"

As a next step, examine the compound that follows.
Could you tell me which Drug uptake is on file for O=C(CN1Cc2ccccc2C1=O)NC1CCN(Cc2ccc([123I])cc2)CC1 ?
28.1 % ID/g

====

Quick reference for Drug uptake among some compounds
System: Mus musculus
Run Description: Biodistribution in tumor of C57BL/6J mouse bearing mouse B16F0 cells at 0.37 to 1.85 MBq, iv after 48 hrs by gamma counting method
Type: ADME, organism-based
Test Conditions: in vivo
API: value field is a number in % ID/g; no unit string.

chemical_structure=O=C(c1ccc2cccnc2n1)N1CCN(Cc2ccc([123I])cc2)CC1 experimental_value=13.1

Look at this compound and give its reported Drug uptake. O=C(CN1Cc2ccccc2C1=O)N1C[C@H]2CN(Cc3ccc([123I])cc3)C[C@H]2C1
5

Need Drug uptake, item O=C(CN1Cc2ccccc2C1=O)NC1CCN(Cc2ccc([123I])cc2)CC1
13.2

I would be grateful if you could share the reported Drug uptake for O=C(c1ccc2c(n1)NCCC2)N1CCN(Cc2ccc([123I])cc2)CC1 .
5.6

====

Quick list: Drug uptake per entry.
Test system: Mus musculus
Run Description: Biodistribution in eyes of C57BL/6J mouse bearing mouse B16F0 cells at 0.37 to 1.85 MBq, iv after 3 hrs by gamma counting method
Assay type: ADME, organism-based, Eye
Test Conditions: in vivo
Unit % ID/g implied. Number only.

Guide cases for Drug uptake, answers given:
chemical_structure=O=C(CN1Cc2ccccc2C1=O)NC1CCN(Cc2ccc([123I])cc2)CC1 measured_parameter="Drug uptake" experimental_value=20.8
chemical_structure=O=C(c1ccc2cccnc2n1)N1CCN(Cc2ccc([123I])cc2)CC1 measured_parameter="Drug uptake" experimental_value=36
chemical_structure=O=C(CN1Cc2ccccc2C1=O)N1C[C@H]2CN(Cc3ccc([123I])cc3)C[C@H]2C1 measured_parameter="Drug uptake" experimental_value=18.5

Here is the next item to consider.
Form field: reported Drug uptake of O=C(c1ccc2c(n1)NCCC2)N1CCN(Cc2ccc([123I])cc2)CC1
56.4
